# Protocol: amyloid nucleation score (Sup35N fusion, yeast selection) (log enrichment); library NNK2; higher = more nucleation; inactive = no reads after selection;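 note: zero at mode of non-aggregating sequences after 7 days selection at 30°C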
Classification field: enter Satisfied for amyloid nucleation score values not below -0.2, Not satisfied for values below it.

- Substance: "EGFKYWIDKGSSGTVCVKST"
  Class assignment: "Satisfied"
- Substance: "YSERSTEGQ"
  Class assignment: "Satisfied"
- Substance: "MFMANGSWTYEEVIE"
  Class assignment: "Satisfied"
- Substance: "SWHFKSKHSCVFFRCEYVVS"
  Class assignment: "Not satisfied"
- Substance: "TYMDNFFVSCGMLKQVYASV"
  Class assignment: "Not satisfied"
- Substance: "EIFIPCEWGIVIHQGHAVSQ"
  Class assignment: "Satisfied"
- Substance: "MHCYSIGFRLMRSANMLSCY"
  Class assignment: "Satisfied"
- Substance: "KVFIANTIGHWCMNQQIMML"
  Class assignment: "Satisfied"
- Substance: "YLTSINLRVGGSWLCNNGRM"
  Class assignment: "Satisfied"
- Substance: "IRYWSMLLEVG"
  Class assignment: "Satisfied"
- Substance: "KCGSTFPLDLLYMSY"
  Class assignment: "Not satisfied"
- Substance: "DFCYFSFRPLHLRFQNTDWP"
  Class assignment: "Satisfied"
- Substance: "NTRCQFSTIGHFAASHDRRD"
  Class assignment: "Satisfied"
- Substance: "YRPITRMCSWDRNSLWWSRY"
  Class assignment: "Not satisfied"
- Substance: "DSSLNIGVLPIVTNGLTKCD"
  Class assignment: "Not satisfied"
- Substance: "SRFIAWSFT"
  Class assignment: "Satisfied"
- Substance: "KNLMCQARNYSLIGALWSVS"
  Class assignment: "Not satisfied"
- Substance: "DFNVSLSCHEKLMMVSFRWR"
  Class assignment: "Not satisfied"
- Substance: "KSISVSLLVEGAVVSLSAYI"
  Class assignment: "Satisfied"
- Substance: "LNVITSVTLRVDWRAVWRKY"
  Class assignment: "Satisfied"
- Substance: "LSHSDVKRALKWNCFPIGVC"
  Class assignment: "Satisfied"
- Substance: "VVNRYRNTFFCVYWTSAGVL"
  Class assignment: "Satisfied"
- Substance: "YSMWGYCISPNKHVYFTHGR"
  Class assignment: "Not satisfied"
- Substance: "QYSTSV"
  Class assignment: "Not satisfied"
- Substance: "IYQIGDEQHDFLCPLKVFVN"
  Class assignment: "Not satisfied"
- Substance: "SILGVCSRLSYVRSVTFQGV"
  Class assignment: "Satisfied"
- Substance: "TGRITVRRGSHLSLWKSMRL"
  Class assignment: "Satisfied"
- Substance: "HHNPGVWMKGSPCMWKIVQI"
  Class assignment: "Satisfied"
- Substance: "ICFNTSLVPECKHSRSEFDS"
  Class assignment: "Satisfied"
- Substance: "FIHRDGYSFDQVGFMGACF"
  Class assignment: "Satisfied"
- Substance: "LIQSFSVLAMHDRLGCWRLR"
  Class assignment: "Satisfied"
- Substance: "WYSYRL"
  Class assignment: "Satisfied"
- Substance: "FDLVGDGYCNYALEYTRLNM"
  Class assignment: "Not satisfied"
- Substance: "TVREKDYIEDFGVIWRKGIY"
  Class assignment: "Satisfied"
- Substance: "RLPHSVSALSLKILGGARAR"
  Class assignment: "Satisfied"
- Substance: "AEYKRGKEGSPLAIWWQLDP"
  Class assignment: "Satisfied"
- Substance: "QNHVRYQGRLPGSCLGCKYR"
  Class assignment: "Not satisfied"
- Substance: "PPDSTWYC"
  Class assignment: "Satisfied"
- Substance: "LVCSKSAGEWAYSRFGVLDL"
  Class assignment: "Not satisfied"
- Substance: "HLNWHLFILGLFGSATGEDI"
  Class assignment: "Not satisfied"
- Substance: "RIFVIGNFVDCWLRLWT"
  Class assignment: "Satisfied"
- Substance: "GNIGYCKRSFSGLQLVGCAR"
  Class assignment: "Not satisfied"
- Substance: "SSLRLDIVRTVHYSQIPEDA"
  Class assignment: "Satisfied"
- Substance: "VAIGLLVEGGFFIHRNICLW"
  Class assignment: "Not satisfied"
- Substance: "WINVGCVCLMVMHILPI"
  Class assignment: "Satisfied"
- Substance: "GICLSNTGRMCFG"
  Class assignment: "Satisfied"
- Substance: "AAPGCFNLKFLS"
  Class assignment: "Not satisfied"
- Substance: "VTANNFKWVVIWLSWRGYGD"
  Class assignment: "Not satisfied"
- Substance: "RINGRRWGFTWVASGLEYFG"
  Class assignment: "Satisfied"
- Substance: "ELPMLGFVCNYSKHQLFIFY"
  Class assignment: "Satisfied"
- Substance: "TLFGHFSYFQD"
  Class assignment: "Satisfied"
- Substance: "KICCIQVLLKYMGQWVQFR"
  Class assignment: "Satisfied"
- Substance: "ESTAWAQVIPDNRLCGRNCR"
  Class assignment: "Satisfied"
- Substance: "IKLQMSLATAQIETGTHGLH"
  Class assignment: "Satisfied"
- Substance: "NAVYACLVGEVLWSSISTLS"
  Class assignment: "Satisfied"
- Substance: "MFVFRCVVRTCRSDHENDHS"
  Class assignment: "Satisfied"
- Substance: "TYYKRN"
  Class assignment: "Not satisfied"
- Substance: "GDSVLLYKWYMLGCWPIGSC"
  Class assignment: "Satisfied"
- Substance: "WRKCKLFFTLYHLHTVELWI"
  Class assignment: "Not satisfied"
- Substance: "LVVVPTTGRVADRQWVMRNG"
  Class assignment: "Satisfied"
- Substance: "LHCYCDLDDALTNPPAHHSR"
  Class assignment: "Satisfied"
- Substance: "LCRCNATRGGCCLFLGCFWL"
  Class assignment: "Satisfied"
- Substance: "IRFQCRSLRFTAIGGQVSWI"
  Class assignment: "Satisfied"

###

# Protocol: amyloid nucleation score (Sup35N fusion, yeast selection) (log enrichment); library NNK2; higher = more nucleation; inactive = no reads after selection
Classification field: enter label 1 for amyloid nucleation score values not below 0.1, label 0 for values below it.

- Substance: "GRLRDCRDEHNSNPTLRFTS"
  Class assignment: "label 1"
- Substance: "TLTLCTSSLDC"
  Class assignment: "label 1"
- Substance: "LLYTTCSFGYLMQKFVL"
  Class assignment: "label 1"
- Substance: "VVSERRAFVRGVFDWIITLD"
  Class assignment: "label 0"
- Substance: "GVKAASGSSPKRGFYDWVKH"
  Class assignment: "label 1"
- Substance: "NLAFSSSIRPLITLEGELLP"
  Class assignment: "label 0"
- Substance: "YSMVIY"
  Class assignment: "label 0"
- Substance: "GTMCFFMCTDYLYGSQTRLG"
  Class assignment: "label 0"
- Substance: "SKGSGICRRISTEYDGVGQS"
  Class assignment: "label 1"
- Substance: "LFIGSIILHYGEKEVKMLAT"
  Class assignment: "label 1"
- Substance: "GYASTDEVMTLRMYLTSIYT"
  Class assignment: "label 0"
- Substance: "CLLIGLAMGMVCSLPLGRIL"
  Class assignment: "label 1"
- Substance: "LNTSFLMV"
  Class assignment: "label 0"
- Substance: "NYIWFVNPYRRFSHVNHITN"
  Class assignment: "label 0"
- Substance: "VWGHWPSRFSQQSRCN"
  Class assignment: "label 1"
- Substance: "NRGFFGSYGVPELQNMDQFE"
  Class assignment: "label 1"
- Substance: "VMKFMWKMMLNRERAPYHVL"
  Class assignment: "label 0"
- Substance: "KSGMWAFYSEDKRTSGLLRW"
  Class assignment: "label 1"
- Substance: "FCVCARWCIVVSGLVCDLRY"
  Class assignment: "label 0"
- Substance: "LLHSWSYRCV"
  Class assignment: "label 0"
- Substance: "GCRRETEDVSGRLCCVVWSL"
  Class assignment: "label 1"
- Substance: "MGAVESGKSRSMCAVLAWSE"
  Class assignment: "label 1"
- Substance: "SEYALYAFE"
  Class assignment: "label 0"
- Substance: "QHLLLCAAM"
  Class assignment: "label 1"
- Substance: "SSASTRDEKGGSGALERERC"
  Class assignment: "label 0"
- Substance: "LMKSIVGFMNESPLVIEFGR"
  Class assignment: "label 0"
- Substance: "LDDWDGKTSRIHSGFYSRLR"
  Class assignment: "label 1"
- Substance: "SVVGRYEYIILGTRAPGTSR"
  Class assignment: "label 1"
- Substance: "DSCCIFIL"
  Class assignment: "label 1"
- Substance: "FYLGYQTRCYSLIGDIE"
  Class assignment: "label 1"
- Substance: "AYIVDTKVT"
  Class assignment: "label 1"
- Substance: "QGCLRQVQMRDRATRIGEVI"
  Class assignment: "label 1"
- Substance: "MHGREFWRCTSWSSLVNLGV"
  Class assignment: "label 1"
